target: SMARCA2 (Homo sapiens); test: SMARCA2 Western blot degradation in MV4-11 cells; type: cell-based; set-up: SMARCA2/SMARCA4 protein degradation selectivity in MV4-11 cells; endogenous in cells; host or cells: MV4-11; details: MV4-11 cells, 24 h; read-out: SMARCA2 MSD MV411 degradation 24 h: Mean external-Abs DC50
Sequence (P51531 whole entry): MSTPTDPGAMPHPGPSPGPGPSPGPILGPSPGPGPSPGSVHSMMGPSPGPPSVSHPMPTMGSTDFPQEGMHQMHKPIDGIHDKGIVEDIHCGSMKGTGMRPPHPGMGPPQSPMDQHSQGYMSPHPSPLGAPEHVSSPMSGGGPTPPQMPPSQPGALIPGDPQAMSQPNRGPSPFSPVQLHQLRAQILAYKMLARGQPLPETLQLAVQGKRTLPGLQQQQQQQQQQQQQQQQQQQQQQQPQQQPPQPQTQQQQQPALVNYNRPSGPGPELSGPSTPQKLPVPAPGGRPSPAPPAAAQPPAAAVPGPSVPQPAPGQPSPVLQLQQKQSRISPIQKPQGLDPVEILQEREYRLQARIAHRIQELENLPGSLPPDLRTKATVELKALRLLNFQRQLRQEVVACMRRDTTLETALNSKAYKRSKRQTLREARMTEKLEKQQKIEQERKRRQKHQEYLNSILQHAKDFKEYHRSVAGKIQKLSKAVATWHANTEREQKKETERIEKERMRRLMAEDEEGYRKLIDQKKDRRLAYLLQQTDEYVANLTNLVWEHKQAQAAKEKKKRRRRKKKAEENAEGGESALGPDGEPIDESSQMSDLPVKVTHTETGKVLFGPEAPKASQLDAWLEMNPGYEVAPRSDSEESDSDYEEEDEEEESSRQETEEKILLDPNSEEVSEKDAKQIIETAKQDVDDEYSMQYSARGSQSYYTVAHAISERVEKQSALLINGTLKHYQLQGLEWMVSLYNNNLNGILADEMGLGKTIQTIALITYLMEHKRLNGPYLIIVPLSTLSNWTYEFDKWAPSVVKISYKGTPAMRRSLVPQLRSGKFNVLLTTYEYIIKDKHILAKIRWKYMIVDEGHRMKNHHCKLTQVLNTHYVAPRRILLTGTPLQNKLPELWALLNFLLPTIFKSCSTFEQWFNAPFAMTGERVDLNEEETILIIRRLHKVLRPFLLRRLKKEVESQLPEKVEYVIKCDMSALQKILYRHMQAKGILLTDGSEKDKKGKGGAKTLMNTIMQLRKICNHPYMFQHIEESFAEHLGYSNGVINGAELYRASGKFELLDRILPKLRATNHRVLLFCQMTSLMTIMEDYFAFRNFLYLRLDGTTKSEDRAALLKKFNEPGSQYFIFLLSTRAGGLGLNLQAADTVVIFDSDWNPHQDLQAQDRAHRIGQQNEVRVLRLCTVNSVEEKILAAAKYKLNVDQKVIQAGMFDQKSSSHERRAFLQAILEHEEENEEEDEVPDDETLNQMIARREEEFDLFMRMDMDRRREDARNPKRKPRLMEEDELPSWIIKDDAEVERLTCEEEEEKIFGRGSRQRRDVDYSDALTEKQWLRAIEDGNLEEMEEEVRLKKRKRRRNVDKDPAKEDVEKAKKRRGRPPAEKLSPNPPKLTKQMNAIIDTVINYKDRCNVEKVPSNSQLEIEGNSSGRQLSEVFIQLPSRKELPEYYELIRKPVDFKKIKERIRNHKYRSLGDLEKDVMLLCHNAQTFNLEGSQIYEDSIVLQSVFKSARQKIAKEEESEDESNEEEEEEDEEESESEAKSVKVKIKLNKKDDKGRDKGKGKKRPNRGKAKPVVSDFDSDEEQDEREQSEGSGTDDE
Provide the reported DC50 of each item.

Example cases with answers are listed next.
| MOLECULE | ASSAYED_TARGET | RESULT |
| --- | --- | --- |
| C#Cc1ccc(CNC(=O)[C@@H]2C[C@@H](O)CN2C(=O)[C@@H](N(C)C(=O)N2CC3(CC(N4CCC(c5cnc(N6CCc7[nH]c8nnc(-c9ccccc9O)cc8c7[C@H]6C)nc5)CC4)C3)C2)C(C)(C)C)cc1 [I-139] | SMARCA2 (Homo sapiens) | > 100 nM |
| C#Cc1ccc(CNC(=O)[C@@H]2C[C@@H](O)CN2C(=O)[C@@H](NC(=O)[C@H]2CCC3(CC2)C[C@H](N2CCC(c4cnc(N5CCN6c7cc(-c8cccc(Cl)c8O)nnc7NC[C@H]6C5)nc4)CC2)C3)C(C)(C)C)cc1 (single isomer, unassigned) [I-105] | SMARCA2 (Homo sapiens) | 10 to 100 nM |
| C#Cc1ccc([C@H](CO)NC(=O)[C@@H]2C[C@@H](O)CN2C(=O)[C@@H](NC(=O)N2CC3(CC(N4CCC(c5cnc(N6CCc7[nH]c8nnc(-c9ccccc9O)cc8c7[C@H]6C)nc5)CC4)C3)C2)C(C)(C)C)cc1 [I-168] | SMARCA2 (Homo sapiens) | < 1 nM |

Query molecule follows.
Measured DC50 for this entry C[C@H](NC(=O)[C@@H]1C[C@@H](O)CN1C(=O)[C@@H](NC(=O)[C@H]1CCC2(CC1)C[C@H](N1CCC(c3cnc(N4CCN5c6cc(-c7ccccc7O)nnc6NC[C@H]5C4)nc3)CC1)C2)C(C)(C)C)c1ccc(-c2ccnn2C)cc1 (single isomer, unassigned) [I-21] on SMARCA2 (Homo sapiens): < 1 nM

* * *

Provide the reported DC50 of each item.
Target: SMARCA2 (Homo sapiens)
Assay: MSD SMARCA2 degradation in A549 cell line
Assay type: cell-based
Settings: A549 cells, 24 h, read-out: SMARCA2 MSD A549 degradation 24 h: Average external-Abs DC50
Protocol: Example 10. MSD SMARCA2 Degradation in A549 Cell Line Cells were seeded into 96-well plates (A549 cells: 2×10^4 cells/well/100 ul media) and incubated overnight. […] The MSD plate was washed three times with 150 uL/well of TBST and 150 ul/well of 2× MSD reading buffer diluted from 4× (MSD, R92TC-2) with water was added. Lastly, the MSD instrument was read. […]

| COMPOUND | DC50 |
| --- | --- |
| Cc1ncsc1-c1ccc(CNC(=O)[C@@H]2C[C@@H](O)CN2C(=O)C(c2cc(OCCN3CCC(N4CCC(c5cnc(N6CCc7[nH]c8nnc(-c9ccccc9O)cc8c7[C@@H]6C)nc5)CC4)CC3)no2)C(C)C)cc1 (single isomer, unassigned) | 50 to 100 nM |

Query compound follows.
Value of measured DC50 for the entry Cc1ncsc1-c1ccc(CNC(=O)[C@@H]2C[C@@H](O)CN2C(=O)[C@@H](NC(=O)C2(F)CC2)C(C)(C)C)c(OCCN2CCC(c3cnc(N4CCN5c6cc(-c7ccccc7O)nnc6NC[C@H]5C4)nc3)CC2)c1 (single isomer, unassigned) : < 10 nM
